Data provenance is paper PMC12592418.

Listing of entries alongside the reported Inhibitory percentage, SiHa.
- System: SiHa cells
- assay method text: MTT cell viability assay, SiHa
- Type: cell-based, human
- assay context: synthetic peptide 100 µg/ml, 24 h, mean ± SD, n = 3
No end group written: not given here.
For clarity, give the value followed by its unit.

substance="SPTPPKNVPF [RB-3]" result=12.36±0.02%
substance="RGSKQRQKRQW [RB-7]" result=8.78±0.08%
substance="DHPTGGL [RB-2]" result=10.28±0.02%
substance="APANGSAF [RB-5]" result=8.75±0.00%
substance="NLRKLKRL [RB-1]" result=4.64±0.02%

Give the measured Inhibitory percentage, SiHa of RRLRILL [RB-6] . 9.72±0.02%

Item: GSEIRSTSDDVL [RB-4] 11.45±0.00%
